Assay: Initiator absorptivity, 400–500 nm in acetonitrile
Type: physicochemical
Settings: normalized by mass
assay.readout: Absorbance × 10^−3

compound=O=C1C(=O)c2ccccc2-c2ccccc21 assay_readout="Absorbance × 10^−3" test_value="466 × 10^−3"
compound=Cc1cc(C)c(C(=O)P(=O)(c2ccccc2)c2ccccc2)c(C)c1 assay_readout="Absorbance × 10^−3" test_value="6 × 10^−3"
compound=Cc1cc(C)c(C(=O)P(=O)(C(=O)c2c(C)cc(C)cc2C)c2ccccc2)c(C)c1 assay_readout="Absorbance × 10^−3" test_value="23 × 10^−3"
compound=CCCCOc1ccc2cc3cc(I)c(=O)c(I)c-3oc2c1 assay_readout="Absorbance × 10^−3" test_value="2960 × 10^−3"
compound="CC12CCC(C(=O)C1=O)C2(C)C (stereo not drawn)" assay_readout="Absorbance × 10^−3" test_value="11 × 10^−3"
compound="CCOP(=O)(C(=O)c1c(C)cc(C)cc1C)c1ccccc1 (stereo not drawn)" assay_readout="Absorbance × 10^−3" test_value="4 × 10^−3"
